B1: SMOC2 (parent)
chain: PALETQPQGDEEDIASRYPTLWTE

Variants of: B1
assay info: protein stability index of a GFP-peptide fusion (GPS, HEK-293T) (PSI 1-6); higher = more stable;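 note: lentivirally expressed fusions sorted by FACS into six bins by GFP to DsRed ratio, PSI derived from sequencing read proportions per bin multiplied by bin number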
condition set: c terminus: a fixed tail appended
measurement type: protein stability index
Output spec: single numeric token, no unit.

Q: What value of protein stability index has been reported for the following variant? S16E
A: 4.94

Q: Here is the next variant: T20R
A: 3.88

Q: And what about the variant R17Q ?
A: 4.78

Q: Another: Y18F
A: 4.25

Q: What do you have for A15T ?
A: 4.36

Q: Next record, please: D13E
A: 3.76

Q: // same read-out, input: E4V
A: 4.11

Q: Also need W22P , thanks.
A: 5.92

Q: Field entry: A2T
A: 4.11

Q: Query Q8H next
A: 4.96

Q: Note, next up: Y18S
A: 4.65

Q: // same read-out, input: A15Q
A: 4.42

Q: Also check E11K
A: 3.92

Q: Another variant to check: L21T
A: 3.98

Q: Then this variant: Q6E
A: 4.39

Q: Another variant to look at: W22T
A: 5.67

Q: Query G9R next
A: 4.34

Q: Also E11P ?
A: 4.82

Q: Can you check A15M next?
A: 4.67

Q: Let us now turn to W22H
A: 5.48

Q: Similarly, R17D ?
A: 4.94

Q: Ok, now P7A
A: 4.07

Q: Same read-out for E4D ?
A: 4.91

Q: Next: A15V
A: 3.87

Q: Follow-up entry: R17I
A: 4.73

Q: Another variant to look at: E24D
A: 4.68

Q: Entry to check: S16V
A: 5.14

Q: How about this variant: L3I
A: 5.31

Q: Same for G9P
A: 4.88

Q: What do we get for A15K ?
A: 3.78

Q: E11Q , same question.
A: 4.22

Q: Another variant to check: D10V
A: 3.69

Q: Would you kindly repeat that for A2C ?
A: 4.4

Q: Do the same for Q8R please
A: 4.6

Q: Try this variant next: A2E
A: 4.48

Q: Same again, this time with A15C
A: 4.1

Q: Now this one: D10F
A: 3.39

Q: Do the same for P19C please
A: 5.15

Q: And then R17N , what is it?
A: 4.23

Q: For E12F then?
A: 4.2

Q: Subsequent entry: W22Q
A: 5.51

Q: Same question for Y18L please.
A: 4.42

Q: And what about the variant D13L ?
A: 3.84

Q: Consider next the variant P19Q in the same way.
A: 5.13

Q: Please give the result for I14G too.
A: 4.53

Q: Next: Q6N
A: 4.3

Q: Same question for E4T please.
A: 4.46

Q: Another: Q8D
A: 5.29

Q: Now try T20C .
A: 3.77

Q: Quick one: T20D
A: 5.59

Q: # iterate: T5Y
A: 4.65

Q: L21C , same question.
A: 4.64

Q: Same again, this time with I14H
A: 4.65

Q: Now try T5E .
A: 4.99

Q: Item: L21A
A: 5.65

Q: How about this variant: L3D
A: 5.37

Q: What about A2D ?
A: 5.13

Q: Another variant to check: P19Y
A: 4.45

Q: Another variant: W22C
A: 5.32

Q: Also I14M ?
A: 3.95

Q: Subsequent entry: P7I
A: 5.37

Q: Would you mind doing S16T as well?
A: 4.39

Q: Try this variant next: R17K
A: 4.35

Q: // query: T20I
A: 3.3

Q: D13F , same question.
A: 4.14

Q: And what about the variant T5M ?
A: 5.01

Q: Check L21H too.
A: 5.91

Q: Do the same for P7H please
A: 4.29

Q: Entry Q6L please
A: 4

Q: Thanks! And G9N ?
A: 4.78

Q: Further, for Q6W ?
A: 4.15

Q: Next record, please: G9A
A: 4.92

Q: Another variant to check: L3V
A: 4.87

Q: How about D13N ?
A: 4.23

Q: Could you do the same for I14F , please?
A: 4.42

Q: Further, for Q6D ?
A: 4.92

Q: // repeat for E11H and report
A: 3.41

Q: # iterate: E11S
A: 4.38

Q: Let us now turn to E11T
A: 4.18

Q: Another variant to check: P7G
A: 4.5

Q: Try G9E next.
A: 5.22

Q: Try T23I next.
A: 4.28

Q: Request: A15N
A: 4.36

Q: Entry Y18T please
A: 4.67

Q: Also need A2G , thanks.
A: 5.22

Q: Next record, please: Y18H
A: 4.87

Q: Moving on to S16W
A: 3.99

Q: Here is the next variant: L21V
A: 4.75

Q: Proceed to T5A
A: 4.8

Q: Next up: P1G
A: 4.33

Q: Try this variant too: E11A
A: 3.79
